Where do these numbers come from? They come from patent EP3623369A1.

- assay-target: human TLR8 (Homo sapiens, UniProt Q9NR97)
- Sequence (Q9NR97 27-1041): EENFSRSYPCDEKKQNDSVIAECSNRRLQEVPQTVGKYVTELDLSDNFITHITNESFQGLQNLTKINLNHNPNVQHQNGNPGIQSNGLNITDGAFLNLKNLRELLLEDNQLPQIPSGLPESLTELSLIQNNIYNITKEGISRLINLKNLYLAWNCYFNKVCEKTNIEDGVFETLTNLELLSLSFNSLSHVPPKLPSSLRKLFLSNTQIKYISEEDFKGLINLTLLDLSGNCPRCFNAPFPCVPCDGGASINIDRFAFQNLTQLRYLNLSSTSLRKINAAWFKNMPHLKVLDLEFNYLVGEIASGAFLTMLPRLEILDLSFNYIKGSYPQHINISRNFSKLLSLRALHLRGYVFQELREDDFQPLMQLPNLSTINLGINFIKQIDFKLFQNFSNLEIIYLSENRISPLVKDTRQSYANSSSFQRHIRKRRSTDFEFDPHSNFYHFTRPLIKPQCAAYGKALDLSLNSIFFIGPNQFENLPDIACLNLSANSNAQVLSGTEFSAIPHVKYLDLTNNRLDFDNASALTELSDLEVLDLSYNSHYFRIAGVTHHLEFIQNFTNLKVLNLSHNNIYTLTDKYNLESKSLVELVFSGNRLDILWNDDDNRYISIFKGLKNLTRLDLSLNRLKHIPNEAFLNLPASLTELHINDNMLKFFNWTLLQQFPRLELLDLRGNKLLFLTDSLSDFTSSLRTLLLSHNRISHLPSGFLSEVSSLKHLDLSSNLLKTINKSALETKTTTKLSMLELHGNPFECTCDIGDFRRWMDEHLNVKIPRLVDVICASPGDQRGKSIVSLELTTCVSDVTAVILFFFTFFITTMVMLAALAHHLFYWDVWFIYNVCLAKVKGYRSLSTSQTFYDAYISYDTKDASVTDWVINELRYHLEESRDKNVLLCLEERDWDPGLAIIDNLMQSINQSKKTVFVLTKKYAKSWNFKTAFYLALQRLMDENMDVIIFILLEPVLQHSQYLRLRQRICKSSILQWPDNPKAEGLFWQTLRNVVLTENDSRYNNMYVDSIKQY
- test-summary: HEK293-Blue-hTLR-8 cells assay (SEAP reporter, R848 stimulation)
- condition: HEK293-Blue-hTLR8 cells, R848, 20 hrs; 0.003 is the lowest tested concentration; read-out: HEK/hTLR8 IC50
recorded-endpoint: pIC50
# pIC50 = -log10(concentration in molar units)

What does the data say about its pIC50? Entry: C[C@@H]1CN(c2ccc(C#N)n3nccc23)C[C@H](CN2Cc3ccncc3C2)O1 [Example R2, reference compound]
6.11

Now consider C[C@@H]1CN(c2ccc(C#N)n3nccc23)C[C@H](CN2Cc3ccc(C4CCNCC4)cc3C2)O1 [Example 8] and answer again.
7.10

Now consider C[C@@H]1CN(c2ccc(Cl)c3ncccc23)C[C@H](CN2Cc3ccc(N4CCNCC4)cc3C2)O1 [Example 31] and answer again.
7.89

Now consider C[C@@H]1CN(c2ccc(C#N)c3ncccc23)C[C@H](CN2Cc3ccc(N4CC5COCC(C4)N5)cc3C2)O1 [Example 72] and answer again.
8.05

Now consider COCCN1CCN(c2ccc3c(c2)CN(C[C@H]2CN(c4ccc(C#N)c5nccnc45)C[C@@H](C)O2)C3)CC1 [Example 37] and answer again.
8.05

====

- assay-target: human TLR8 (Homo sapiens, UniProt Q9NR97)
- test-summary: HEK293-Blue-hTLR-8 cells assay (SEAP reporter, R848 stimulation)
- condition: HEK293-Blue-hTLR8 cells, R848, 20 hrs; 0.003 is the lowest tested concentration; read-out: HEK/hTLR8 IC50
Assign IC50 to each entry below.
Output spec: scalar in nM, unitless text.

What does the data say about its IC50? Entry: C[C@@H]1CN(c2ccc(C#N)c3ncccc23)C[C@H](CN2Cc3ccccc3C2)O1 [Example R3, reference compound]
146

Now consider C[C@@H]1CN(c2ccc(C#N)c3ncccc23)C[C@H](CNCc2ccc(N3CCNCC3)cc2)O1 and answer again.
26

Now consider C[C@@H]1CN(c2ccc(C#N)n3nccc23)C[C@H](CN2Cc3ccc(OCCN(C)C)cc3C2)O1 and answer again.
58

Now consider C[C@@H]1CN(c2ccc(C#N)n3nccc23)C[C@H](CN2CCc3ccc(N4CCNCC4)cc3C2)O1 and answer again.
229

====

- assay-target: human TLR8 (Homo sapiens)
- test-summary: HEK293-Blue-hTLR-8 cells assay (SEAP reporter, R848 stimulation)
- condition: HEK293-Blue-hTLR8 cells, R848, 20 hrs; 0.003 is the lowest tested concentration; read-out: HEK/hTLR8 IC50
recorded-endpoint: IC50

What does the data say about its IC50? Entry: C[C@@H]1CN(c2ccc(C#N)c3nccnc23)C[C@H](CN2Cc3ccc(N4CCNC5(CC5)C4)cc3C2)O1
5 nM

Now consider C[C@@H]1CN(c2ccc(C#N)c3ncccc23)C[C@H](CN2Cc3ccc(N4CCNCC4)cc3C2)O1 and answer again.
5 nM

Now consider C[C@@H]1CN(c2ccc(C#N)c3nccnc23)C[C@H](CNCc2ccc(N3CCNCC3)cc2)O1 and answer again.
22 nM

Now consider C[C@@H]1CN(c2ccc(C#N)c3ncccc23)C[C@H](CN2Cc3ccc(N4CC(N)C4)cc3C2)O1 and answer again.
8 nM

Now consider C[C@@H]1CN(c2ccc(C#N)c3ncccc23)C[C@H](CN2Cc3ccc(N4CC5(CNC5)C4)cc3C2)O1 and answer again.
23 nM

Now consider C[C@@H]1CN(c2ccc(C#N)c3ncccc23)C[C@H](CN2Cc3ccc(N4CC5CCC(C4)N5)cc3C2)O1 and answer again.
13 nM

Now consider C[C@@H]1CN(c2ccc(C#N)n3nccc23)C[C@H](CN2CCc3cc(N4CCN(C)CC4)ccc3C2)O1 and answer again.
21 nM

====

- assay-target: human TLR8 (Homo sapiens)
- test-summary: HEK293-Blue-hTLR-8 cells assay (SEAP reporter, R848 stimulation)
- condition: HEK293-Blue-hTLR8 cells, R848, 20 hrs; 0.003 is the lowest tested concentration; read-out: HEK/hTLR8 IC50
recorded-endpoint: pIC50
# pIC50 = -log10(concentration in molar units)

What does the data say about its pIC50? Entry: C[C@@H]1CN(c2ccc(C#N)n3nccc23)C[C@H](CN2Cc3cc(N4CCNCC4)cnc3C2)O1 [Example 18]
7.51

Now consider C[C@@H]1CN(c2ccc(Cl)c3nccnc23)C[C@H](CN2CCc3cc(N4CCNCC4)ccc3C2)O1 [Example 34] and answer again.
8.30

Now consider C[C@@H]1CN(c2ccc(C#N)n3nccc23)C[C@H](CN2CCc3cnccc3C2)O1 [Example R1, reference compound] and answer again.
6.93

Now consider C[C@@H]1CN(c2ccc(C#N)c3ncccc23)C[C@H](CNCc2ccccc2)O1 [ER-886509, reference compound] and answer again.
6.86

Now consider C[C@@H]1CN(c2ccc(C#N)c3nccnc23)C[C@H](CN2Cc3cc(N4CCNCC4)cnc3C2)O1 [Example 30] and answer again.
8.52

Now consider C[C@@H]1CN(c2ccc(C#N)n3nccc23)C[C@H](CN2Cc3ccc(C4CCNC4)cc3C2)O1 (some centres unmarked) [Example 9] and answer again.
7.05

Now consider C[C@@H]1CN(c2ccc3c(c2)CN(C[C@H]2CN(c4ccc(C#N)c5ncccc45)C[C@@H](C)O2)C3)C[C@@H](C)N1 (mixture of isomers) [Example 57] and answer again.
7.92

Now consider C[C@@H]1CN(c2ccc(C#N)c3ncsc23)C[C@H](CN2CCc3cc(N4CCNCC4)ccc3C2)O1 [Example 24] and answer again.
8.40

Now consider C[C@@H]1CN(c2ccc(C#N)c3ncccc23)C[C@H](CN2CCc3nc(N4CCNCC4)ccc3C2)O1 [Example 79] and answer again.
8.40

====

Assign pIC50 to each entry below.
- assay-target: hTLR9 (Homo sapiens)
- Sequence (Q9NR96 26-1032): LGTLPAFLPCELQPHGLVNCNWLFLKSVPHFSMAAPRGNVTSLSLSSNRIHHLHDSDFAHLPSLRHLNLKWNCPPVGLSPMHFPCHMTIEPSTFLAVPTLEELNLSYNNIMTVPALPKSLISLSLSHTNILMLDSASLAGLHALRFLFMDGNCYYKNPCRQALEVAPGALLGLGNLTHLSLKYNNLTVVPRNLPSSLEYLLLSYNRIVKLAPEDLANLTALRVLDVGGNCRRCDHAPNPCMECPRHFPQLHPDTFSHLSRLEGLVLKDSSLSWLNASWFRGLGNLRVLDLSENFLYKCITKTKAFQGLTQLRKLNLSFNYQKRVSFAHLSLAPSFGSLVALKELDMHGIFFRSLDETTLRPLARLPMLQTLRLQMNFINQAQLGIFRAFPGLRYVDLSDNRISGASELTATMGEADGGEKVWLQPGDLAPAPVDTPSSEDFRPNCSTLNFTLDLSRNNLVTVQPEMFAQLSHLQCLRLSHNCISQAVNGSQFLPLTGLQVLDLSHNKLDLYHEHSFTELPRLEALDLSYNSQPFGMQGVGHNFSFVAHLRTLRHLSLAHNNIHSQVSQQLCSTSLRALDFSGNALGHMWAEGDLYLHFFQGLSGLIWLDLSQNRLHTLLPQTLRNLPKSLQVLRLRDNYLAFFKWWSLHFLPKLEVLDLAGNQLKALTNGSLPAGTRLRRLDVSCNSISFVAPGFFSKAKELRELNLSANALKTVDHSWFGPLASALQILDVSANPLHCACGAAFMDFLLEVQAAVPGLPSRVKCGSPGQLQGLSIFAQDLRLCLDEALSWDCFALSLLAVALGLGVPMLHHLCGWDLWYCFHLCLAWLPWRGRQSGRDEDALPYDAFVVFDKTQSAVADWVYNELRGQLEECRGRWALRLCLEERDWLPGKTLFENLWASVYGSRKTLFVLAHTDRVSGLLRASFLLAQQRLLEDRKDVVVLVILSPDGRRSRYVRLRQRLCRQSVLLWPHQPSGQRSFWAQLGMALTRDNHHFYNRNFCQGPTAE
- test-summary: HEK293-Blue-hTLR-9 cells assay (SEAP reporter, ODN2006 stimulation)
- Type: cell-based
- condition: HEK293-Blue-hTLR9 cells, ODN2006, 20 hrs; 0.032 is the lowest tested concentration; read-out: HEK/hTLR9 IC50
# pIC50 = -log10(concentration in molar units)

What does the data say about its pIC50? Entry: C[C@@H]1CN(c2ccc(C#N)c3ncccc23)C[C@H](CN2Cc3ccc(N4C5CCC4CNC5)cc3C2)O1
7.06

Now consider C[C@@H]1CN(c2ccc(C#N)c3ncsc23)C[C@H](CN2Cc3cc(N4CCNCC4)cnc3C2)O1 and answer again.
7.20

Now consider C[C@@H]1CN(c2ccc(C#N)c3nccnc23)C[C@H](CN2Cc3ccc(N4CCN[C@@H](C)C4)cc3C2)O1 and answer again.
7.08

====

- test-summary: Human microsome stability assay
- Assay type: in vitro ADME
- condition: human liver microsomes, 1 µM test compound, 0.5 mg/mL protein, 37°C, up to 30 minutes
recorded-endpoint: Clearance of Human microsome (mL/min/kg)
Output spec: scalar in mL/min/kg, unitless text.

What does the data say about its Clearance of Human microsome? Entry: C[C@@H]1CN(c2ccc(C#N)c3nccnc23)C[C@H](CN2Cc3ccc(N4CC5CCC(C4)N5)cc3C2)O1
6.94

Now consider C[C@@H]1CN(c2ccc3c(c2)CN(C[C@H]2CN(c4ccc(C#N)c5ncccc45)C[C@@H](C)O2)C3)CCN1 and answer again.
6.39

Now consider C[C@@H]1CN(c2ccc(C#N)c3ncccc23)C[C@H](CN2Cc3ccc(N4CC5(CCN5)C4)cc3C2)O1 and answer again.
7.09

====

- assay-target: human TLR8 (Homo sapiens)
- test-summary: HEK293-Blue-hTLR-8 cells assay (SEAP reporter, R848 stimulation)
- condition: HEK293-Blue-hTLR8 cells, R848, 20 hrs; 0.003 is the lowest tested concentration; read-out: HEK/hTLR8 IC50
recorded-endpoint: IC50 (nM)
Output spec: scalar in nM, unitless text.

What does the data say about its IC50? Entry: C[C@@H]1CN(c2ccc(C#N)c3nccnc23)C[C@H](CN2Cc3ccc(N4C5CCC4CNC5)cc3C2)O1
9

Now consider C[C@@H]1CN(c2ccc(C#N)c3nccnc23)C[C@H](CN2Cc3ccc(N4CCN(C5CC5)CC4)cc3C2)O1 and answer again.
9

Now consider C[C@@H]1CN(c2ccc(C#N)c3ncccc23)C[C@H](CN2Cc3ccc(N4CC5(CCN5)C4)cc3C2)O1 and answer again.
7

Now consider C[C@@H]1CN(c2ccc(C#N)c3nccnc23)C[C@H](CN2Cc3ccc(N4CC5COCC(C4)N5)cc3C2)O1 and answer again.
14

Now consider C[C@@H]1CN(c2ccc(C#N)c3ncccc23)C[C@H](CN2Cc3ccc(N4C5CCC4CNC5)cc3C2)O1 and answer again.
12

Now consider C[C@@H]1CN(c2ccc(C#N)c3ncccc23)C[C@H](CN2Cc3ccc(N4CCNC[C@@H]4CO)cc3C2)O1 and answer again.
14

Now consider C[C@@H]1CN(c2ccc(C#N)c3ncccc23)C[C@H](CN2CCc3cc(N4CCNCC4)ccc3C2)O1 and answer again.
6

Now consider C[C@@H]1CN(c2ccc(Cl)c3ncccc23)C[C@H](CN2CCc3cc(N4CCNCC4)ccc3C2)O1 and answer again.
17

Now consider C[C@@H]1CN(c2ccc(C#N)n3ncc(F)c23)C[C@H](CN2Cc3cc(N4CCNCC4)cnc3C2)O1 and answer again.
14

Now consider C[C@@H]1CN(c2ccc(C#N)c3ncccc23)C[C@H](CN2Cc3ccc(N4CCNCC4CO)cc3C2)O1 (stereo partly shown) and answer again.
10

Now consider C[C@@H]1CN(c2ccc(C#N)c3ncccc23)C[C@H](CN2Cc3ccc(N4CCNCC4)cc3C(O)C2)O1 (stereo partly shown) and answer again.
4

Now consider C[C@@H]1CN(c2ccc(C#N)n3nccc23)C[C@H](CN2CCc3cc(N4CCNCC4)ccc3C2)O1 and answer again.
52

Now consider C[C@@H]1CN(c2ccc(C#N)c3ncccc23)C[C@H](CN2Cc3ccc(N4CCN[C@@H](C)C4)cc3C2)O1 and answer again.
6

Now consider C[C@@H]1CN(c2ccc(C#N)n3ncc(F)c23)C[C@H](CN2CCc3cc(N4CCNCC4)ccc3C2)O1 and answer again.
29

Now consider C[C@@H]1CN(c2ccc(C#N)c3nccnc23)C[C@H](CN2Cc3ccc(N4CCN5CCCCC5C4)cc3C2)O1 (stereo partly shown) and answer again.
4

Now consider C[C@@H]1CN(c2ccc3c(c2)CN(C[C@H]2CN(c4ccc(C#N)c5ncccc45)C[C@@H](C)O2)C3)C[C@H](C)N1 and answer again.
6
